Test: Diuretic activity, acute sodium loaded mouse screening test
Format: in vivo, male mice
Details: 50 mg/kg oral in 1% saline
Method: The diuretic activity of the compounds of this invention was assayed by the diuresis screening test referred to as "acute sodium loaded mouse". This test was carried out by the following method. The acute sodium loaded mouse screening test was carried out by using a 10-membered group of male mice (each weighing 18 to 24 g). […] The determination was carried out for sodium, potassium, and chlorine in each pooled urine sample. […] Chlorine was determined by chloride analysis apparatus. […]
Entry class follows Urine volume: low: < 9 ml/kg/5 hrs.; medium: ≥ 9 ml/kg/5 hrs. and < 10 ml/kg/5 hrs.; high: ≥ 10 ml/kg/5 hrs.

Field: example entries. Status: answers known.
MOLECULE	GROUP LABEL
CCCCO[C@H]1O[C@H](CO)[C@@H](O)[C@H](O)[C@H]1N(CCCOC)C(=O)N(CCCl)N=O	medium
CCOCCCN(C(=O)N(CCCl)N=O)[C@H]1[C@H](OC(C)CC)OC[C@H](O)[C@@H]1O (stereo partly drawn)	high
COCCCN(C(=O)N(CCCl)N=O)C1C(OCC(C)C)OC(CO)C(O)C1O (stereo not drawn)	medium
CC(C)CO[C@@H]1O[C@H](CN(C(=O)N(CCCl)N=O)C(C)(C)C)[C@@H](O)[C@H](O)[C@H]1O	medium
COCCN(C(=O)N(CCCl)N=O)C1C(CO)OC(OCC(C)C)C(O)C1O (stereo not drawn)	medium
COCCN(C[C@H]1O[C@H](OCC(C)C)[C@@H](O)[C@@H](O)[C@@H]1O)C(=O)N(CCCl)N=O	medium
CCCCO[C@@H]1O[C@H](CN(C)C(=O)N(CCCl)N=O)[C@@H](O)[C@H](O)[C@H]1O	low
COC(C)CO[C@H]1O[C@H](CN(CC2CCCO2)C(=O)N(CCCl)N=O)[C@H](O)[C@H](O)[C@H]1O (stereo partly drawn)	low

query: Pick a category. Item: CC(C)(C)N(C[C@H]1O[C@H](OCCN2CCOCC2)[C@H](O)[C@@H](O)[C@@H]1O)C(=O)N(CCCl)N=O
result: high

query: Which band does CCCCO[C@H]1O[C@H](CN(CCCOC)C(=O)N(CCCl)N=O)[C@@H](O)[C@H](O)[C@H]1O fall in?
result: low
